Exercise: state measured GI50 for each of the compounds provided.
system: 786-0; experiment: NCI tumour cell line growth inhibition, 48 h
Activity calls are given as the source filed them. Cut-off read from the data, not from the text of the source: active = GI50 up to about 1.1 µM and inactive = higher.

- compound: "C=CCN(N=O)C(=O)NCCCC(NC(C)=O)C(=O)NCc1ccccc1 (centres undefined)"
  GI50: "> 100 µM (inactive)"
- compound: "CC(=O)Nc1[nH]c(=O)[nH]c(=O)c1N(C(C)=O)C(C)=O"
  GI50: "> 100 µM (inactive)"
- compound: "OC(CCN1CCCCC1)(c1ccccc1)c1ccccc1"
  GI50: "> 100 µM (inactive)"

Could you tell me GI50 for each of these compounds? They are listed below.
1. NC(=O)c1csc(C2OC(COP(=O)(O)CP(=O)(O)OCC3OC(n4cnc5c(N)ncnc54)C(O)C3O)C(O)C2O)n1 (centres undefined)
2. O=C1C2=C(C(=O)c3c(O)ccc(O)c31)[C@@H](O)[C@@H](O)[C@@H](O)C2

["> 100 µM (inactive)", "2.02 µM (inactive)"]

List reported GI50 for each of these compounds:
1. N#Cc1c(-c2cccc(Br)c2)cc(-c2ccc(Cl)cc2)nc1N
2. O=P(c1ccccc1)(c1ccccc1)c1ccc2c(c1)OCCOCCOCCOCCO2
3. COc1cc(/C=C\c2ccc(OC(C)=O)cc2)cc(OC)c1OC
4. CCOC(=O)c1[nH]c(-c2[nH]c(-c3[nH]c(-c4[nH]c(C(=O)OCC)c(C)c4C(=O)OCC)c(C(=O)OCC)c3C)c(C)c2C(=O)OCC)c(C(=O)OCC)c1C

1. 20.3 µM (inactive)
2. > 100 µM (inactive)
3. 3.56 µM (inactive)
4. > 100 µM (inactive)

###

Assignment: determine reported GI50 for the given compounds.
tested on: MDA-MB-435; assay: NCI tumour cell line growth inhibition, 48 h
The source made the active and inactive calls. Cut-off read from the data, not from the text of the source: active = GI50 up to about 1.1 µM and inactive = higher.

Take a look at these entries with their results.
- compound: "Cc1cc(-c2nc3cccc(F)c3s2)ccc1N"
  measured target: "MDA-MB-435"
  GI50: "> 61.4 µM (inactive)"
- compound: "CSC(SC)=C(C#N)C(=O)Nc1ccc(Cl)cc1"
  measured target: "MDA-MB-435"
  GI50: "69.2 µM (inactive)"
- compound: "Cc1ccc(S(=O)(=O)[N-]C2C(=O)c3ccccc3C(=O)C2[n+]2cccc(C(N)=O)c2)cc1 (stereo unspecified)"
  measured target: "MDA-MB-435"
  GI50: "> 100 µM (inactive)"

For the 7 compounds below, give their GI50 values.
1. OCCCCn1cc(Cn2ncc3c(O)ncnc32)nn1
2. COC1CC(NC(=O)C(F)(F)F)C(OC(C)=O)C(C)O1 (stereo unspecified)
3. COC(=O)C1Cc2ccc3c(c2C1=O)CCCC3 (stereo unspecified)
4. CCOC1NC(=O)Oc2cc3ccccc3cc21 (stereo unspecified)
5. CCOC(=O)c1cc2cc(Cc3ccc4[nH]c(C(=O)OCC)cc4c3)ccc2[nH]1
6. Cc1ccc2c(O)cc(-c3ccc(Cl)s3)nc2n1
7. N#Cc1nc2cc(Cl)ccc2nc1N1CCN(c2ccc([N+](=O)[O-])cc2)CC1

["> 100 µM (inactive)", "> 100 µM (inactive)", "> 100 µM (inactive)", "> 100 µM (inactive)", "27.2 µM (inactive)", "0.223 µM (active)", "> 100 µM (inactive)"]

Value sought for every listed compound: GI50.
1. O=C(CSc1nc2ccc(I)cc2c(=O)n1Cc1ccccc1)NN1C(=O)CCC1=O
2. COC(=O)C(Cc1ccccc1)NP(=O)(O)OCC1OC(n2ccc(N)nc2=O)C(O)C1O (stereo unspecified)
3. CC(=O)Nc1ccc(-c2nc3ccccc3s2)cc1I
4. CCOC1OC(COC(=O)C(C)(C)C)C(O)CC1n1cc(C)c(=O)[nH]c1=O (stereo unspecified)

1: 64.1 µM (inactive); 2: > 100 µM (inactive); 3: > 94.8 µM (inactive); 4: > 100 µM (inactive)

Need GI50 for each of these compounds.
1. ClCCCSSCCCCl
2. COc1ccc(N2C(=O)C3c4[nH]c5ccc(OCc6ccccc6)cc5c4C4CCC(C(C)C)CC4C3C2=O)cc1 (stereo unspecified)
3. CC(CC(C)[C@H]1CCC2[C@H]3C(CC(=O)[C@@]21C)[C@@]1(C)CCC(O)C[C@H]1C[C@@H]3O)C(=O)O (stereo partly specified)
4. O=C1/C(=C/c2ccc(Br)s2)NC(=S)N1c1ccccc1
5. COc1ccc(Oc2nc3ccc(C(F)(F)F)cc3nc2-c2ccccc2)cc1
6. OC(CCN1CCCCC1)(c1ccccc1)c1ccccc1 [PRIDINOL]
7. O=P(c1ccccc1)(c1ccccc1)c1ccc2c(c1)OCCOCCOCCOCCO2

1. 24.3 µM (inactive)
2. > 100 µM (inactive)
3. > 100 µM (inactive)
4. 86.3 µM (inactive)
5. > 100 µM (inactive)
6. 82.8 µM (inactive)
7. > 100 µM (inactive)

###

tested on: MOLT-4; experiment: NCI tumour cell line growth inhibition, 48 h
The source made the active and inactive calls. Cut-off read from the data, not from the text of the source: active = GI50 up to about 1.1 µM and inactive = higher.
Field 'call' accepts 1 (active), 0 (inactive)

Before answering, review these 8 worked examples.
- compound: "CC(=O)N/C(=C\\c1ccc(Cc2nc3c([nH]2)C(=O)c2ccccc2C3=O)cc1)c1nc2c([nH]1)C(=O)c1ccccc1C2=O"
  group label: 0
- compound: "Cc1cc(S(=O)(=O)/N=C2\\NCCN2Cc2ccccc2)c(S)cc1Cl"
  group label: 0
- compound: "Nc1cc2c(nc3c4ccccc4c(N)cc3[n+]2-c2cccc3ccccc23)c2ccccc12.Nc1cc2c(nc3c4ccccc4ccc3[n+]2-c2cccc3ccccc23)c2ccccc12"
  group label: 1
- compound: "CCN(CC)CCC/N=c1\\c2cc(OC)ccc2[nH]c2c([N+](=O)[O-])ccc(NCCCN(CC)CC)c12"
  group label: 1
- compound: "C=C1[C@@H](O)C[C@@]23CC[C@@H]4[C@@]5(C)CC[C@@H](OC(C)=O)C(C)(C)[C@@H]5C[C@@H](OC5OC(COC(C)=O)C(O)C(O)C5O)[C@@]4(C)C2=CC[C@H]3[C@H]1C (stereo partly specified)"
  group label: 0
- compound: "O=c1oc2cc(O)ccc2c(O)c1C(c1ccccc1F)c1c(O)c2ccc(O)cc2oc1=O"
  group label: 0
- compound: "COc1cc(C(=O)O)c([N+](=O)[O-])c(OC)c1OC"
  group label: 0
- compound: "CO[C@H]1C=C[C@@]23c4cc5c(cc4CO[C@]2(O)CN(C)[C@H]3C1)OCO5"
  group label: 0

State the result this test recorded for C=CCOC(C)n1c(C)cc(=O)n(C(C)OCC=C)c1=O (stereo unspecified) .
0

Hi team, can someone confirm the assay call for CN1CCc2cc3c(c4c2C1C(O)c1ccccc1-4)OCO3 (stereo unspecified) ?
0

Please share the test call associated with O=c1n(-c2ccccc2)c(=O)n2n1C1Cc3ccccc3C12 (stereo unspecified) .
0

Could you check what this test reported for "Cc1n[nH]c(=O)n1/N=C/c1ccc(F)cc1" ?
0

Please indicate how the test categorized "Cc1nc(O)nc2nc3cc(Cl)cc(Cl)c3c(NC(C)(CO)CO)c12" .
0

Outcome logged for "C(=N/Nc1ccccn1)/c1cccnc1" in this assay:
0

Test call, this compound: CC(C)(C)OC(=O)N1C2CCCC23O[C@@H]1c1cc2c(cc1C3=O)OCO2 (stereo partly specified)
0

Could you check what this test reported for "O=C(N/N=C/C=C/c1ccccc1)[C@H](O)[C@@H](O)C(=O)N/N=C/C=C/c1ccccc1" ?
0

###

Please provide measured GI50 for the entries that follow.
system: TK-10; experiment: NCI tumour cell line growth inhibition, 48 h
Active and inactive are the calls of the source. No stated cut-off is given here; in the data, active = GI50 up to about 1.1 µM and inactive = higher.

Guide cases for GI50, answers given:
- molecule: "COC(=O)C(CCCC1(c2ccccc2)OCCO1)C(C)=O (configuration not stated)"
  GI50: "> 100 µM (inactive)"
- molecule: "Oc1c2cccc1Cc1cccc3c1OCCOCCOCCOCCOc1c(cccc1Cc1cccc(c1O)C3)C2"
  GI50: "> 100 µM (inactive)"
- molecule: "Cc1cc(S(=O)(=O)/N=C2\\NCCN2Cc2ccccc2)c(S)cc1Cl"
  GI50: "> 100 µM (inactive)"
- molecule: "COc1ccccc1C(N)c1ccccc1 (configuration not stated)"
  GI50: "> 100 µM (inactive)"

For each entry beneath this line, provide reported GI50.
1. CCOC(=O)c1cc2c(cn1)[nH]c1cccc(N)c12
2. c1ccc2c(c1)Oc1cccc3cccc-2c13
3. CCCCCN(CCCCC)C(=O)[C@@H](CCC(=O)O)NC(=O)c1cc2ccccc2[nH]1

1: > 100 µM (inactive); 2: > 100 µM (inactive); 3: 46.6 µM (inactive)

###

tested on: RXF 393; test: NCI tumour cell line growth inhibition, 48 h
Activity calls are given as the source filed them. Rule as the data show it: active = GI50 up to about 1.1 µM and inactive = higher.
measured metric: GI50

// worked examples, GI50 included
- compound: "CN1CCc2cc3c(c4c2C1C(O)c1ccccc1-4)OCO3 (stereo unspecified)"
  result: "2.52 µM (inactive)"
- compound: "CN(C)Cc1cc(C(C)(C)C)ccc1-c1ccc(C(C)(C)C)cc1CN(C)C"
  result: "> 100 µM (inactive)"
- compound: "OC(CCN1CCCCC1)(c1ccccc1)c1ccccc1 [PRIDINOL]"
  result: "> 100 µM (inactive)"

Provide each entry's GI50 from the list below.
1. CCOC1OC(COC(=O)C(C)(C)C)C(O)CC1n1cc(C)c(=O)[nH]c1=O (stereo unspecified)
2. CC(C(=O)n1c2ccccc2c2ccccc21)N(c1ccccc1)c1ccccc1 (stereo unspecified)
3. N#Cc1c(CC(=O)O)cc(=O)n2c1[nH]c1ccccc12

["> 100 µM (inactive)", "14.6 µM (inactive)", "> 100 µM (inactive)"]

Consider the following items and state reported GI50 for each.
1. CC1CC[C@@H](C(C)C)[C@H](Oc2nnc(C3OC(CO)C(O)C3O)o2)C1 (stereo partly specified)
2. C(=N\OCCc1ccccc1)/c1cccnc1
3. O=[N+]([O-])c1ccc(C2=NOC(c3ccc(Cl)cc3)N2C23CC4CC(CC(C4)C2)C3)cc1 (stereo unspecified)
4. CCOC(=O)c1cc2c(cn1)[nH]c1cccc(N)c12

1. > 100 µM (inactive)
2. > 100 µM (inactive)
3. 1.86 µM (inactive)
4. > 100 µM (inactive)

// map "CCOC(=O)CCc1c(C)nc2c(C)c3c([nH]c4ccc(Cl)cc43)c(C)c2c1O" to recorded GI50 (system: RXF 393)
2.96 µM (inactive)
